# methodDescription: Caco-2 membrane permeability evaluation (improved method, 20-24 h pre-incubation, 96-well)
# Assay type: in vitro ADME
# recordedConditions: human, commercially available middle molecular weight compounds
Label criterion met when Papp at 180 min < 2 ×10⁻⁶ cm/s; otherwise criterion not met.

Hi there! Is Papp at 180 min for CC[C@H]1OC(=O)[C@H](C)C(=O)[C@H](C)[C@@H](O[C@@H]2O[C@H](C)C[C@H](N(C)C)[C@H]2O)[C@](C)(OC)C[C@@H](C)C(=O)[C@H](C)[C@H]2N(CCCCn3cnc(-c4cccnc4)c3)C(=O)O[C@]12C [Telithromycin] below 2 ×10⁻⁶ cm/s, do you know?
criterion met

Please check: Papp at 180 min for CCC1=C[C@@H]2CN(C1)Cc1c([nH]c3ccccc13)[C@@](C(=O)OC)(c1cc3c(cc1OC)N(C)[C@H]1[C@@](O)(C(=O)OC)[C@H](OC(C)=O)[C@]4(CC)C=CCN5CC[C@]31[C@@H]54)C2 [Vinorelbine] , strictly under 2 ×10⁻⁶ cm/s or not?
criterion met

Strictly below 2 ×10⁻⁶ cm/s: is that where Papp at 180 min of CO[C@H]1/C=C/O[C@@]2(C)Oc3c(C)c(O)c4c(O)c(c(/C=N/N5CCN(C)CC5)c(O)c4c3C2=O)NC(=O)/C(C)=C\C=C\[C@H](C)[C@H](O)[C@@H](C)[C@@H](O)[C@@H](C)[C@H](OC(C)=O)[C@@H]1C [Rifampicin] sits?
criterion met

Please state whether Papp at 180 min is below 2 ×10⁻⁶ cm/s for CO[C@H]1C[C@@H]2CC[C@@H](C)[C@@](O)(O2)C(=O)C(=O)N2CCCC[C@H]2C(=O)O[C@H]([C@H](C)C[C@@H]2CC[C@@H](O)[C@H](OC)C2)CC(=O)[C@H](C)/C=C(\C)[C@@H](O)[C@@H](OC)C(=O)[C@H](C)C[C@H](C)/C=C/C=C/C=C/1C [Rapamycin]
criterion met

Please indicate whether the reported Papp at 180 min of CC(C)c1nc(CN(C)C(=O)N[C@H](C(=O)N[C@@H](Cc2ccccc2)C[C@H](O)[C@H](Cc2ccccc2)NC(=O)OCc2cncs2)C(C)C)cs1 [Ritonavir] is strictly below 2 ×10⁻⁶ cm/s.
criterion met

Item CO[C@H]1/C=C/O[C@@]2(C)Oc3c(C)c(O)c4c(O)c(c(/C=N/N5CCN(C6CCCC6)CC5)c(O)c4c3C2=O)NC(=O)/C(C)=C\C=C\[C@H](C)[C@H](O)[C@@H](C)[C@@H](O)[C@@H](C)[C@H](OC(C)=O)[C@@H]1C [Rifapentine] : Papp at 180 min beneath 2 ×10⁻⁶ cm/s, strictly?
criterion not met

Find out if reported Papp at 180 min for C=CC[C@@H]1/C=C(\C)C[C@H](C)C[C@H](OC)[C@H]2O[C@@](O)(C(=O)C(=O)N3CCCC[C@H]3C(=O)O[C@H](/C(C)=C/[C@@H]3CC[C@@H](O)[C@H](OC)C3)[C@H](C)[C@@H](O)CC1=O)[C@H](C)C[C@@H]2OC [Tacrolimus] is less than 2 ×10⁻⁶ cm/s
criterion not met

====

Assign logD to each entry below.
# methodDescription: Log D (pH 7.4) measurement, n-octanol/buffer
# recordedConditions: n-octanol/pH 7.4 buffer

// returns reported logD for input CO[C@H]1/C=C/O[C@@]2(C)Oc3c(C)c(O)c4c(O)c(c(/C=N/N5CCN(C)CC5)c(O)c4c3C2=O)NC(=O)/C(C)=C\C=C\[C@H](C)[C@H](O)[C@@H](C)[C@@H](O)[C@@H](C)[C@H](OC(C)=O)[C@@H]1C
1.61

Quick one: logD for CO[C@H]1/C=C/O[C@@]2(C)Oc3c(C)c(O)c4c(O)c(c(/C=N/N5CCN(C6CCCC6)CC5)c(O)c4c3C2=O)NC(=O)/C(C)=C\C=C\[C@H](C)[C@H](O)[C@@H](C)[C@@H](O)[C@@H](C)[C@H](OC(C)=O)[C@@H]1C ?
2.45

I have this compound here, CCC1=C[C@@H]2CN(C1)Cc1c([nH]c3ccccc13)[C@@](C(=O)OC)(c1cc3c(cc1OC)N(C)[C@H]1[C@@](O)(C(=O)OC)[C@H](OC(C)=O)[C@]4(CC)C=CCN5CC[C@]31[C@@H]54)C2 , and I need its recorded logD.
2.82

// returns reported logD for input C[C@@H]1[C@H](O)[C@@H](C)/C=C/C=C/C=C/C=C/C=C/C=C/C=C/[C@H](O[C@@H]2O[C@H](C)[C@@H](O)[C@H](N)[C@@H]2O)C[C@@H]2O[C@](O)(C[C@@H](O)C[C@@H](O)[C@H](O)CC[C@@H](O)C[C@@H](O)CC(=O)O[C@H]1C)C[C@H](O)[C@H]2C(=O)O
0.11

====

Task for the reader: assign each of the following molecules its reported logD at 2 h.
# methodDescription: physchem
# recordedConditions: pH 7.4
Starred links: 1 amine or outer side, 2 acyl side, 3 side chain; linkers in the order of their positions; H or OH if unused. Positions of bridges follow the written chain, without caps; N, C: chain ends. Non-standard residues stand in square brackets, D forms with d. Residues, ends and D or L forms follow the SMILES beside them. *: point of attachment. NMeF = CN[C@@H](Cc1ccccc1)C(=O)O; NMeI = CC[C@H](C)[C@H](NC)C(=O)O; NMeβAla = CN(CCC(=O)[*:2])[*:1]; NMeL = CN[C@@H](CC(C)C)C(=O)O; NMeA = CN[C@@H](C)C(=O)O; Piperidide = C1CCN(*)CC1; Sar = CNCC(=O)O; tBu = CC(C)(C)*
Could you respond with only the numeric value?

Requested read-out: logD at 2 h. Entry: CC(C)C[C@H]1C(=O)N(C)[C@@H](CC(C)C)C(=O)N[C@H](C(=O)N2CCCCC2)CC(=O)N(C)CCC(=O)N(C)[C@@H](Cc2ccccc2)C(=O)N[C@@H]([C@@H](C)O)C(=O)N(C)CC(=O)N[C@@H](COC(C)(C)C)C(=O)N1C [Compound (6)] ([NMeβAla][NMeF]T[Sar]S(tBu)[NMeL][NMeL]D-Piperidide; lactam N-8)
3.19

What value of logD at 2 h has been reported for the following molecule? CC[C@H](C)[C@H]1C(=O)N[C@@H](COC(C)(C)C)C(=O)N[C@H](C(=O)N2CCCCC2)CC(=O)N(C)[C@@H](C)C(=O)N(C)[C@@H](Cc2ccccc2)C(=O)N(C)CC(=O)N(C)[C@@H](CC(C)C)C(=O)N[C@@H]([C@@H](C)O)C(=O)N(C)[C@@H](C)C(=O)N(C)[C@@H](CC(C)C)C(=O)N1C [Compound (2)] ([NMeA][NMeF][Sar][NMeL]T[NMeA][NMeL][NMeI]S(tBu)D-Piperidide; lactam N-10)
4.43

Which logD at 2 h reading was recorded for the molecule CC[C@H](C)[C@H]1C(=O)N(C)[C@@H](C)C(=O)N(C)[C@@H](Cc2ccccc2)C(=O)N[C@@H]([C@@H](C)O)C(=O)N(C)[C@@H](Cc2ccccc2)C(=O)N(C)[C@@H](CC(C)C)C(=O)N2CCC[C@H]2C(=O)N[C@H](C(=O)N2CCCCC2)CC(=O)N[C@@H](C)C(=O)NCC(=O)N(C)[C@@H](CC(C)C)C(=O)N1C [Compound (1)] (AG[NMeL][NMeI][NMeA][NMeF]T[NMeF][NMeL]PD-Piperidide; lactam N-11) ?
5.19

Given the molecule CC[C@H](C)[C@H]1C(=O)N[C@H](C(=O)N2CCCCC2)CC(=O)N[C@H](C(C)C)C(=O)N(C)[C@@H](CC(C)C)C(=O)N(C)[C@@H](Cc2ccccc2)C(=O)N(C)[C@@H](C)C(=O)N[C@@H]([C@@H](C)O)C(=O)N(C)CC(=O)N(C)[C@@H](CC(C)C)C(=O)N[C@@H](COC(C)(C)C)C(=O)N1C [Compound (3)] ([dV][NMeL][NMeF][NMeA]T[Sar][NMeL]S(tBu)[NMeI]D-Piperidide; lactam N-10) , what is its reported logD at 2 h?
4.18

====

# methodDescription: Caco-2 membrane permeability evaluation (improved method, 20-24 h pre-incubation, 96-well)
# Assay type: in vitro ADME
# recordedConditions: human, cyclic peptides, pre-incubation 20-24 h, apical pH 6.0, basal pH 7.4 4% BSA, 180 min
Positions of bridges follow the written chain, without caps; N, C: chain ends. Non-standard residues stand in square brackets, D forms with d. Residues, ends and D or L forms follow the SMILES beside them. *: point of attachment. NMeF = CN[C@@H](Cc1ccccc1)C(=O)O; NMeI = CC[C@H](C)[C@H](NC)C(=O)O; NMeL = CN[C@@H](CC(C)C)C(=O)O; NMeA = CN[C@@H](C)C(=O)O; Piperidide = C1CCN(*)CC1; Sar = CNCC(=O)O; tBu = CC(C)(C)*
Give Papp A→B at 180 min for every item shown.
Reply with just the number (in ×10⁻⁶ cm/s).

Using the record for CC[C@H](C)[C@H]1C(=O)N[C@H](C(=O)N2CCCCC2)CC(=O)N[C@H](C(C)C)C(=O)N(C)[C@@H](CC(C)C)C(=O)N(C)[C@@H](Cc2ccccc2)C(=O)N(C)[C@@H](C)C(=O)N[C@@H]([C@@H](C)O)C(=O)N(C)CC(=O)N(C)[C@@H](CC(C)C)C(=O)N[C@@H](COC(C)(C)C)C(=O)N1C [Compound (3)] ([dV][NMeL][NMeF][NMeA]T[Sar][NMeL]S(tBu)[NMeI]D-Piperidide; lactam N-10) , report its Papp A→B at 180 min.
0.249

Which Papp A→B at 180 min is reported for this molecule? CC[C@H](C)[C@H]1C(=O)N[C@H](C(=O)N2CCCCC2)CC(=O)N[C@H](C(C)C)C(=O)N(C)[C@@H](Cc2ccccc2)C(=O)N(C)[C@@H](CC(C)C)C(=O)N[C@@H]([C@@H](C)O)C(=O)N(C)CC(=O)N(C)[C@@H](CC(C)C)C(=O)N[C@@H](COC(C)(C)C)C(=O)N1C [Compound (5)] ([dV][NMeF][NMeL]T[Sar][NMeL]S(tBu)[NMeI]D-Piperidide; lactam N-9)
1.85

What value of Papp A→B at 180 min has been reported for the following molecule? CC[C@H](C)[C@H]1C(=O)N(C)[C@@H](C)C(=O)N(C)[C@@H](Cc2ccccc2)C(=O)N[C@@H]([C@@H](C)O)C(=O)N(C)[C@@H](Cc2ccccc2)C(=O)N(C)[C@@H](CC(C)C)C(=O)N2CCC[C@H]2C(=O)N[C@H](C(=O)N2CCCCC2)CC(=O)N[C@@H](C)C(=O)NCC(=O)N(C)[C@@H](CC(C)C)C(=O)N1C [Compound (1)] (AG[NMeL][NMeI][NMeA][NMeF]T[NMeF][NMeL]PD-Piperidide; lactam N-11)
0.262

Tell me the measured Papp A→B at 180 min of CC(C)C[C@@H]1NC(=O)[C@H](Cc2ccccc2)N(C)C(=O)[C@H](Cc2ccccc2)N(C)C(=O)[C@H](CC(C)C)NC(=O)[C@H](C)N(C)C(=O)[C@H]([C@@H](C)O)NC(=O)[C@H](C)N(C)C(=O)C[C@@H](C(=O)N2CCCCC2)NC(=O)[C@H](CC(C)C)N(C)C1=O [Compound (4)] ([NMeA]T[NMeA]L[NMeF][NMeF]L[NMeL]D-Piperidide; lactam N-9) , please.
4.14

Values from patent US20220096379A1
